- target entity: human TLR7 (Homo sapiens)
- Sequence (Q9NYK1 27-1049): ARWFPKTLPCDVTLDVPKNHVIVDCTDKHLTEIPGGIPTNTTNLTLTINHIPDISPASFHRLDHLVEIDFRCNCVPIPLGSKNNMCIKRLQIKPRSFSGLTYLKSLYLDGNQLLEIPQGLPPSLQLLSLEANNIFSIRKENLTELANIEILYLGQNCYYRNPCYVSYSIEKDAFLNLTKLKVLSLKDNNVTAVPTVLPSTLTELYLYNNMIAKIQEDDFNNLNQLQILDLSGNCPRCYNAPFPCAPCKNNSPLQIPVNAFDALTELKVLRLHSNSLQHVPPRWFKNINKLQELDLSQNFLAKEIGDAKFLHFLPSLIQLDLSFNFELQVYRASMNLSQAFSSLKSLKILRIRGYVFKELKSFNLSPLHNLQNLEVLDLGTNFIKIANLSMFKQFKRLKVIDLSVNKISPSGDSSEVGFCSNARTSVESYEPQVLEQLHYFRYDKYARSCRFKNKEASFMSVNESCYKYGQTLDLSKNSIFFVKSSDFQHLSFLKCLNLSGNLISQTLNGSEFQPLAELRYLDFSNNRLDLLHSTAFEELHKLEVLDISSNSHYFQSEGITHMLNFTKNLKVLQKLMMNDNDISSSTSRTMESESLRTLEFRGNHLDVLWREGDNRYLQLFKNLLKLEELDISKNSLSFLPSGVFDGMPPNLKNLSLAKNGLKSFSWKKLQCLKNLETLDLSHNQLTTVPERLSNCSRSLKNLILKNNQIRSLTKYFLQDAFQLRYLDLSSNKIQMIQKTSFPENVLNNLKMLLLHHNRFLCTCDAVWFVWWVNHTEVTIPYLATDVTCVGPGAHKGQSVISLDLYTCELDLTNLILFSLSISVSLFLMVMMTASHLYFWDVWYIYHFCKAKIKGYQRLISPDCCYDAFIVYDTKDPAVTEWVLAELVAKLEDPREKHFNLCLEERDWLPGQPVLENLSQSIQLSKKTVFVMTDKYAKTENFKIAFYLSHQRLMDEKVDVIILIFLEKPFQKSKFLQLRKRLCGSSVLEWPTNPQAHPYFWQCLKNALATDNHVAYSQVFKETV
- assay overview: TLR7 inhibition reporter assay (HEK-Blue cells, SEAP reporter, gardiquimod stimulation)
- condition summary: HEK-Blue cells overexpressing human TLR7, SEAP reporter, gardiquimod 7.5 μM
- Excerpt: TLR7/8/9 Inhibition Reporter Assays HEK-Blue™-cells (Invivogen) overexpressing human TLR7, TLR8 or TLR9 receptors were used for screening inhibitors of these receptors using an inducible SEAP (secreted embryonic alkaline phosphatase) reporter gene under the control of the IFN-β minimal promoter fused to five NF-κB and AP-1-binding sites. […]
Label met when IC50 is strictly below 4 nM; at or above that, label not met.

Example results:
| molecule | target entity | label |
| --- | --- | --- |
| CC(C)c1c(-c2ccnc3[nH]ncc23)[nH]c2ccc(C3CCC(Oc4ccncc4)CC3)cc12 (stereo not drawn) [Example 505] | human TLR7 (Homo sapiens) | not met |
| CNC(=O)CN1CCOC(c2ccc3[nH]c(-c4cn5ncnc5c(C)c4C)c(C(C)C)c3c2)C1 (stereo not drawn) [Example 313] | human TLR7 (Homo sapiens) | not met |
| COC1CCC(c2ccc3[nH]c(-c4cc(C)c5ncnn5c4)c(C(C)C)c3c2)CC1 (stereo not drawn) | human TLR7 (Homo sapiens) | not met |
| Cc1cc(-c2[nH]c3ccc(C4CCCN(C(=O)C5(C)CC5)C4)cc3c2C(C)C)cc(C)n1 (stereo not drawn) [Example 199] | human TLR7 (Homo sapiens) | not met |
| COc1cc(-c2[nH]c3ccc(C4CCCN(C(C)C)C4)cc3c2C(C)C)cn2ncnc12 (single isomer, unassigned) [Example 239] | human TLR7 (Homo sapiens) | met |

Take the molecule Cc1c(-c2[nH]c3ccc(C4CN(C5COC5)C4)cc3c2C(C)C)cn(C)c(=O)c1C and say whether its IC50 is less than 4 nM.
not met

Does this molecule meet the criterion IC50 < 4 nM? CNCC(=O)N1CC(c2ccc3[nH]c(-c4cc(OC)c5ncnn5c4)c(C(C)C)c3c2)C1
met

Is the reported IC50 for COc1cc(-c2[nH]c3ccc(C4CCC(NC(=O)CN(C)C)CC4)cc3c2C(C)C)cn2ncnc12 (stereo not drawn) [Example 127] strictly below 4 nM?
met

Find out if reported IC50 for Cc1c(-c2[nH]c3ccc(C4CCC(NCC(=O)N(C)C)CC4)cc3c2C(C)C)cn(C)c(=O)c1C (stereo not drawn) [Example 480] is less than 4 nM
not met

I wonder whether Cc1cc(-c2[nH]c3ccc([C@@H]4C[C@H]4C(=O)N(C)C4CC5CCN4CC5)cc3c2C(C)C)ccn1 (stereo partly drawn) [Example 463] has IC50 below 4 nM. Can you tell?
not met

Is it true that IC50 reported for Cc1cc(-c2[nH]c3ccc(C4CN5CCC4CC5)cc3c2C(C)C)cn2ncnc12 (stereo not drawn) [Example 364] is less than 4 nM?
met

Does COc1cc(-c2[nH]c3ccc(C4CCCN(C5COC5)C4)cc3c2C(C)C)cn2ncnc12 (stereo not drawn) [Example 237] have IC50 strictly under 4 nM?
not met
